test system: NB6; assay: cells; type: functional, cell-based, Homo sapiens; conditions: nb6;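 further: growth inhibition of NB6 cells, read out by a cell viability assay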
Description: SANGER: Inhibition of human NB6 cell growth in a cell viability assay.
pIC50: −log10 of the molar value. Where a SMILES comes first, the peptide text is derived from it. The star is where a group is joined. Cbz = O=C(OCc1ccccc1)*
assay-metric: pIC50

Please look at CC(C)C[C@@H](C=O)NC(=O)[C@H](CC(C)C)NC(=O)[C@H](CC(C)C)NC(=O)OCc1ccccc1 [MG-132] (Cbz-Leu-Leu-Leu-aldehyde) and tell me its recorded pIC50 on NB6.
< 6.00

----------
IC50: recorded values
test system: NCI-H2030; assay: cells; assay type: functional, cell-based; details: Homo sapiens
Description: SANGER: Inhibition of human NCI-H2030 cell growth in a cell viability assay.
Give a bare numeral; the unit nM is implied.

Tell us which IC50 value is on record for Cc1ccc(C(=O)Nc2ccc(CN3CCN(C)CC3)c(C(F)(F)F)c2)cc1C#Cc1cnc2cccnn12
312

Next:
Tell us which IC50 value is on record for C/C(=C\c1csc(C)n1)[C@@H]1C[C@@H]2O[C@]2(C)CCC[C@H](C)[C@H](O)[C@@H](C)C(=O)C(C)(C)[C@@H](O)CC(=O)O1
0.699

Tell us which IC50 value is on record for CCCCCCCCCCCC1=C(O)C(=O)C=C(O)C1=O
12700
